test: logP of fragrance raw materials and fragrances
As shown below, each of these compounds has a reported logP value.
Returns: the value as a bare number; no unit string appended.

Solved cases (4 shown):
compound | measured attribute | assay value
CCC(=O)OC1CC2CC1C1CC=CC21 (stereo not drawn) [VERDYL PROPIONATE] | logP | 3.34
CC(C)=CCCC(C)=CCO [GERANIOL LJ] | logP | 3.47
CCOC(=O)CC1(C)OCCO1 [FRUCTONE ®, ETHYL 2-METHYL-1,3-DIOXOLANE-2-ACETATE] | logP | 1.3
CCCC(C)C(=O)OCC (racemic) [(+ −)-ETHYL 2-METHYLPENTANOATE] | logP | 2.76

Identify logP associated with the compound CC1/C=C/CCCCCCCCCCC(=O)C1 (racemic) [MUSCENONE DELTA]
5.75

Identify logP associated with the compound O=C1CCCCCCCCCCCCCCO1 [EXALTOLIDE ®, oxacyclohexadecan-2-one]
6.15

Identify logP associated with the compound COC(=O)c1c(C)cc(O)c(C)c1O [MOUSSE CRISTAL]
3.22

Identify logP associated with the compound CCCCCC1(C)CCC(C)(C)C1=O (racemic) [VELOUTONE]
4.34

Identify logP associated with the compound C=CC(C)CCCC(C)(C)O (racemic) [DIHYDROMYRCENOL PURE, (+ −)-2,6-DIMETHYL-7-OCTEN-2-OL]
3.47

---

assay: logP of fragrance raw materials and fragrances
measured attribute: logP
Returns: the value as a bare number; no unit string appended.

compound | logP
CC(=O)/C(C)=C/C1C(C)=CCCC1(C)C (racemic) | 4.84
CC(C)=CC1CC(C)CCO1 (stereo not drawn) [ROSE OXIDE] | 3.58
CCCCCCC1CCC(=O)O1 (racemic) [DECALACTONE CP, (+ −)-4-DECANOLIDE] | 2.72
Cc1ccc2c(c1)OCC(=O)CO2 [CALONE ®, 7-methyl-2H-1,5-benzodioxepin-3(4H)-one] | 2.43
CC(C)(O)CCC1CCCCC1 | 3.98

Note: attention shifts to another entry.
Identify logP associated with the compound COC(=O)/C=C/c1ccccc1 [METHYL CINNAMATE, METHYL (E)-3-PHENYL-2-PROPENOATE]
2.62

---

test: physchem
As shown below, each of these compounds has a reported logP value.
Returns: the value as a bare number; no unit string appended.

compound | assay value
CCOc1cc(C=O)ccc1O [ETHYL VANILLIN, 3-ethoxy-4-hydroxybenzaldehyde] | 1.58

Note: attention shifts to another entry.
Identify logP associated with the compound CCC1CCC(=O)O1 (racemic) [GAMMA HEXALACTONE, (+ −)-4-HEXANOLIDE]
0.6
